# tested_on: T1, TP-51 peptide (aa 352-414 of SEQ ID NO:1) (human)
# T1 construct: Synthetic peptide (Pepscan)
# T1 peptide: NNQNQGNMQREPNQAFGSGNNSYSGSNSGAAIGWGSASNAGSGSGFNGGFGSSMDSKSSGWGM
# experimental_protocol: SPR 8K, mAb captured, TP-51 injected
observation_type: kon (M⁻¹ s⁻¹)
Write down the numeric answer in M⁻¹ s⁻¹ and omit the unit.

Can you share its kon? I mean this binder: hACI-7069-633B12-Ab1_H15L14 (IgG4) (antibody, V domains shown) VH: QVQLVQSGAEVKKPGASVKVSCKASGFTFTEYSMHWVRQAPGQRLEWMGGINPGNAGTSYNQKFKGRVTITVDTSASTAYMELSSLRSEDTAVYYCARESWGQGTTVTVSS VL: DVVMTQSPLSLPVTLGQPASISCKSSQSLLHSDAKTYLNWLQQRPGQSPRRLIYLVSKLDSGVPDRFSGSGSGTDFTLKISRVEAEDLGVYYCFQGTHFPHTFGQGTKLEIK 110000
